# TEST_TARGET: NDM‐1 (Klebsiella pneumoniae, UniProt C7C422)
# Sequence (C7C422 29-270, looked up, species assumed): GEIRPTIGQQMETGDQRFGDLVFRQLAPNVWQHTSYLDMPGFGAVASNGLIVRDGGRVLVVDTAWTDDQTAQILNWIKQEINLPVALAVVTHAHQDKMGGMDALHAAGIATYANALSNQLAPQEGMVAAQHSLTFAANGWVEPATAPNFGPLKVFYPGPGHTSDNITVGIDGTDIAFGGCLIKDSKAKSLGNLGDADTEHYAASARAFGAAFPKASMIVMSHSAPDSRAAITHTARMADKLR
// IC50 lookup, one value per entry
All answers are understood in nM, so give the number only.

Record excerpt, results attached:
>  <COMPOUND>
COC(=O)CC(SCCCS)C(=O)OC (stereo not drawn)

>  <TEST_TARGET>
NDM‐1 (Klebsiella pneumoniae, UniProt C7C422)

>  <VALUE_OBSERVED>
440

$$$$
>  <COMPOUND>
N#Cc1ccc(N2CCC(SCCS)C2=O)cc1 (stereo not drawn)

>  <TEST_TARGET>
NDM‐1 (Klebsiella pneumoniae, UniProt C7C422)

>  <VALUE_OBSERVED>
1190

$$$$
>  <COMPOUND>
Cc1ccc(C(=O)CSCCCS)cc1

>  <TEST_TARGET>
NDM‐1 (Klebsiella pneumoniae, UniProt C7C422)

>  <VALUE_OBSERVED>
250

$$$$

Entry O=C1C(SCCCS)CCN1c1cccc(C(F)(F)F)c1 (stereo not drawn) ; assay system NDM‐1 (Klebsiella pneumoniae, UniProt C7C422); IC50 recorded at 480

Entry "O=C(CSCCCS)c1ccc(F)cc1" , NDM‐1 (Klebsiella pneumoniae, UniProt C7C422) data, IC50 value: 600

The reported IC50 value, NDM‐1 (Klebsiella pneumoniae, UniProt C7C422), for O=C1CCCC1SCCCS (stereo not drawn) reads 480

Field IC50 (system: NDM‐1 (Klebsiella pneumoniae, UniProt C7C422)) for entry "O=C(CSCCCS)N1CCN(Cc2ccc(Cl)cc2)CC1" = 3310

Reading of IC50 for O=C1C(SCCCS)CCN1c1nccs1 (stereo not drawn) with NDM‐1 (Klebsiella pneumoniae, UniProt C7C422): 390

Item "COc1ccc(C(=O)CSCCS)cc1" ; assay system NDM‐1 (Klebsiella pneumoniae, UniProt C7C422); IC50 reported as 1340

Bench note, NDM‐1 (Klebsiella pneumoniae, UniProt C7C422): O=C1C(SCCCS)CCN1c1ccccc1 (stereo not drawn) , IC50 reads 300

Entry O=C1OCCC1SCCS (stereo not drawn) , NDM‐1 (Klebsiella pneumoniae, UniProt C7C422) data, IC50 value: 3630

Entry O=C1C(SCCS)CCN1c1cccc(C(F)(F)F)c1 (stereo not drawn) ; assay system NDM‐1 (Klebsiella pneumoniae, UniProt C7C422); IC50 recorded at 2080

----------
# TEST_TARGET: VIM‐1 (Pseudomonas aeruginosa, UniProt A0A0F7KYQ8)
# EXPERIMENT_DESCRIPTION: Fluorescence-based enzyme activity assay (Fluorocillin), VIM-1
# Method: In order to investigate the structure‐activity relationships of the dithiol library, we measured the inhibitory activity of 3 a–x in a fluorescence‐based enzyme activity assay (Table 1). Two relevant β‐lactamase isoforms, NDM‐1 and VIM‐1 were selected for in vitro assays. The fluorogenic substrate fluorocillin[15] was prepared according to literature and its conversion was monitored as described previously.[6] […]
Consider the following compounds and their measured IC50 readings.
Value expressed in nM; do not type the unit.

Some compounds with known IC50 results, for comparison:
>  <COMPOUND>
N#Cc1ccc(N2CCC(SCCS)C2=O)cc1 (stereo not drawn)

>  <UNIT_ABBREV>
nM

>  <IC50>
100

$$$$
>  <COMPOUND>
O=C1C(SCCS)CCN1c1ccccc1 (stereo not drawn)

>  <UNIT_ABBREV>
nM

>  <IC50>
80

$$$$

The record that follows has no IC50 shown yet.
Per the reported VIM‐1 (Pseudomonas aeruginosa, UniProt A0A0F7KYQ8) data, "CN(Cc1ccc(Cl)cc1)C(=O)CSCCS" has IC50 of 100
